targetDesc: Serine/threonine-protein kinase Nek7 (Homo sapiens) (UniProt Q8TDX7)
Sequence (Q8TDX7 whole entry, looked up): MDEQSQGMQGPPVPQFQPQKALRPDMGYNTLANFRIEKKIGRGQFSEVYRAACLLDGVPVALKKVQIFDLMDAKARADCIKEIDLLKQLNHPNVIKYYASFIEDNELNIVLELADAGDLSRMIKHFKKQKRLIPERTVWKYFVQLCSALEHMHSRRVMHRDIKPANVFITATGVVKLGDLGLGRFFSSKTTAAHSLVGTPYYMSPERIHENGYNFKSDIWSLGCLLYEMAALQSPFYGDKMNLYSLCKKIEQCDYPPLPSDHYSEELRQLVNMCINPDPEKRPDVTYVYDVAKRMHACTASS
testSettings: at 0.1 µM
observedProperty: inhibition (%)
Write down the numeric answer in % and omit the unit.

Solved entries:
# smilesData, measurementUnit, number
records = [
    ("NC(=O)c1sc(-n2cnc3cc(C(F)(F)F)ccc32)cc1OCc1ccccc1Br", "%", -3.9),
    ("COc1cccc(COc2cc(-n3cnc4ccccc43)sc2C(N)=O)c1", "%", 0.3),
    ("COc1cc(C=NNc2ncnc3c2cnn3Cc2ccccc2)ccc1O", "%", -6.27),
    ("CCn1c(-c2nonc2N)nc2c(C#CC(C)(C)O)nc(O[C@@H](CN)c3ccccc3)cc21", "%", 1.12),
]

Kindly review the next compound as well.
Ask: Request body: readout inhibition, system Serine/threonine-protein kinase Nek7 (Homo sapiens) (UniProt Q8TDX7), query CCn1c(-c2nonc2N)nc2c(C#CC(C)(C)O)ncc(OC[C@@H]3CCCN3)c21 . Return the value.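 Further: figures are averaged percent inhibition of NEK7 kinase.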
Result: -0.99

* * *

targetDesc: Dual specificity protein kinase TTK (Homo sapiens)
testSettings: at 0.1 µM
Description: GSK_PKIS: TTK mean inhibition at 0.1 uM [Nanosyn]
Each entry below carries its reported inhibition.
Quick reminder: number only, in %, skip the unit.

Please review the following examples before continuing.
# smilesData, targetDesc, inhibition (%)
rows = [
    ("Fc1ccc(-c2ncn(C3CCNCC3)c2-c2ccnc(Oc3ccccc3)n2)cc1", "Dual specificity protein kinase TTK (Homo sapiens)", 6.21),
    ("COc1cc(C=NNc2ncnc3c2cnn3Cc2ccccc2)ccc1O", "Dual specificity protein kinase TTK (Homo sapiens)", -6.4),
    ("NC(=O)c1sc(-n2cnc3cc(C(F)(F)F)ccc32)cc1OCc1ccccc1Br", "Dual specificity protein kinase TTK (Homo sapiens)", 2.94),
    ("COc1cccc(-n2ncc3c(N/N=C/c4ccncc4)ncnc32)c1", "Dual specificity protein kinase TTK (Homo sapiens)", 8.59),
    ("NS(=O)(=O)c1ccc(N/C=C2\\C(=O)Nc3ccc4ncsc4c32)cc1", "Dual specificity protein kinase TTK (Homo sapiens)", 40.1),
]

Ask: Which inhibition value is on record for CCn1c(-c2nonc2N)nc2c(C#CC(C)(C)O)nc(O[C@@H](CN)c3ccccc3)cc21 ?
Result: 3.8

Ask: Sample COc1cccc(COc2cc(-n3cnc4ccccc43)sc2C(N)=O)c1 — what was its inhibition?
Result: 3.72

* * *

targetDesc: RAC-alpha serine/threonine-protein kinase (Homo sapiens) (UniProt P31749)
Sequence (P31749 whole entry): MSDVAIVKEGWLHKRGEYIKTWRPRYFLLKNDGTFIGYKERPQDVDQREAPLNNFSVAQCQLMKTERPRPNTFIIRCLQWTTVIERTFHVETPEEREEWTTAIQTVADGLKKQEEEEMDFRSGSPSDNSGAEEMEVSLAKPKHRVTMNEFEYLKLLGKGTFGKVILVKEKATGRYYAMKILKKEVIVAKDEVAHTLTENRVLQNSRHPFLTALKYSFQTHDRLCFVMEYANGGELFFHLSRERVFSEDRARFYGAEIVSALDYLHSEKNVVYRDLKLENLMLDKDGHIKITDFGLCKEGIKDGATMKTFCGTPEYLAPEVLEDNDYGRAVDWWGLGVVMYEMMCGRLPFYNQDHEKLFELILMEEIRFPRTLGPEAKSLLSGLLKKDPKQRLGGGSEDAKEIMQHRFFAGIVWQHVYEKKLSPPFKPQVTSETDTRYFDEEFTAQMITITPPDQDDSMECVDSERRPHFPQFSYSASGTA
testSettings: at 1 µM
Description: GSK_PKIS: AKT1 mean inhibition at 1 uM [Nanosyn]
Some compounds, each annotated with its measured inhibition.
Remember to quote the unit after the number.

Known results for compounds:
# smilesData, inhibition
data = [
    ("NS(=O)(=O)c1ccc(-c2ccc3c(NC(=O)C4CC4)n[nH]c3c2)cc1", "1%"),
    ("CCn1c(-c2nonc2N)nc2c(C#CCN)ncc(OCCCN)c21", "10.9%"),
    ("COc1cc(C=NNc2ncnc3c2cnn3Cc2ccccc2)ccc1O", "-2.35%"),
    ("NS(=O)(=O)c1ccc(N/C=C2\\C(=O)Nc3ccc4ncsc4c32)cc1", "0.61%"),
]

# context switch: different compound, same inhibition
Ask: Record request: inhibition value, item CCn1c(-c2nonc2N)nc2c(C#CC(C)(C)O)ncc(OC[C@@H]3CCCN3)c21
Result: 91.1%

* * *

Listing of recorded inhibition by entry.
targetDesc: Activated CDC42 kinase 1 (Homo sapiens)
testSettings: at 1 µM
Description: GSK_PKIS: TNK2 mean inhibition at 1 uM [Nanosyn]
Just the number in %, nothing appended.

Past entries and their recorded results:
# smilesData, number
rows = [
    ("NC(=O)c1sc(-n2cnc3cc(C(F)(F)F)ccc32)cc1OCc1ccccc1Br", 1.45),
    ("COc1cccc(COc2cc(-n3cnc4ccccc43)sc2C(N)=O)c1", 0.57),
    ("CCn1c(-c2nonc2N)nc2c(C#CCN)ncc(OCCCN)c21", 0.81),
    ("NS(=O)(=O)c1ccc(N/C=C2\\C(=O)Nc3ccc4ncsc4c32)cc1", 1.83),
]

Ask: Consider the molecule Cc1cc(-c2ccco2)cc(C)c1/C=C/c1cncc(-c2nn[nH]n2)c1 and give its measured inhibition.
Result: 3.5
